// provenance: ChEMBL document CHEMBL3351521

# Test system: UniProt P14900
# Experimental protocol: Partial un-competitive inhibition of Escherichia coli MurD using ATP substrate by steady-state enzyme kinetics assay
pKi: −log10 of the molar value.

Molecular string: Cc1cc(/C=C2/S/C(=N/c3ccc(Cl)cc3)NC2=O)c(C)n1-c1cc(C(=O)O)cc(C(=O)O)c1
pKi: 4.41

====

# Test system: UDP-N-acetylmuramate--L-alanine ligase (Escherichia coli K-12)
# Sequence (P17952 whole entry): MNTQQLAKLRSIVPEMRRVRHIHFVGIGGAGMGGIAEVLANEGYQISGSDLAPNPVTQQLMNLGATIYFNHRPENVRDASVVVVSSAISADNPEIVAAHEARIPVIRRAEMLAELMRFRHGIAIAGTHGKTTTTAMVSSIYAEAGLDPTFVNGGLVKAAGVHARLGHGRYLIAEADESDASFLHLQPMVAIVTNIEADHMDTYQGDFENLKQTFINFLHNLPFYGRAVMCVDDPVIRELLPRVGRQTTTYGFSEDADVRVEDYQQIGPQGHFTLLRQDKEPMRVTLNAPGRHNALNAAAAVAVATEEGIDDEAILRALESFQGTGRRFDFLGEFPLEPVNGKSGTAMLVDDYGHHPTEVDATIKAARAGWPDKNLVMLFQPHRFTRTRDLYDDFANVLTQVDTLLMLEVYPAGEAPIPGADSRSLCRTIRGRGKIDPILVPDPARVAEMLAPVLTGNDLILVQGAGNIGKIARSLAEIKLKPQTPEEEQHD
# Experimental protocol: Inhibition of Escherichia coli MurC after 15 mins in presence of 0.005% Triton X-114 by Malachite green assay
pIC50: −log10 of the molar value.
Classification field: enter condition met for pIC50 values not below 4, condition not met for values below it.

Molecular string: COc1ccc(/N=C2\NC(=O)/C(=C\c3cc(C)n(-c4cc(C(=O)O)cc(C(=O)O)c4)c3C)S2)cc1
Discrete label: condition not met
--
Molecular string: Cc1cc(/C=C2/S/C(=N/c3ccc(Cl)cc3)NC2=O)c(C)n1-c1cc(C(=O)O)cc(C(=O)O)c1
Discrete label: condition met
--
Molecular string: Cc1cc(/C=C2/S/C(=N/c3ccccc3)NC2=O)c(C)n1-c1cc(C(=O)O)cc(C(=O)O)c1
Discrete label: condition not met
--
Molecular string: Cc1cc(/C=C2/S/C(=N/c3ccc(Br)cc3)NC2=O)c(C)n1-c1cc(C(=O)O)cc(C(=O)O)c1
Discrete label: condition met
--
Molecular string: Cc1cc(/C=C2/SC(=S)NC2=O)c(C)n1-c1cc(C(=O)O)cc(C(=O)O)c1
Discrete label: condition not met

====

# Test system: UDP-N-acetylmuramoyl-tripeptide--D-alanyl-D-alanine ligase (Escherichia coli K-12, UniProt P11880)
# Sequence (P11880 whole entry): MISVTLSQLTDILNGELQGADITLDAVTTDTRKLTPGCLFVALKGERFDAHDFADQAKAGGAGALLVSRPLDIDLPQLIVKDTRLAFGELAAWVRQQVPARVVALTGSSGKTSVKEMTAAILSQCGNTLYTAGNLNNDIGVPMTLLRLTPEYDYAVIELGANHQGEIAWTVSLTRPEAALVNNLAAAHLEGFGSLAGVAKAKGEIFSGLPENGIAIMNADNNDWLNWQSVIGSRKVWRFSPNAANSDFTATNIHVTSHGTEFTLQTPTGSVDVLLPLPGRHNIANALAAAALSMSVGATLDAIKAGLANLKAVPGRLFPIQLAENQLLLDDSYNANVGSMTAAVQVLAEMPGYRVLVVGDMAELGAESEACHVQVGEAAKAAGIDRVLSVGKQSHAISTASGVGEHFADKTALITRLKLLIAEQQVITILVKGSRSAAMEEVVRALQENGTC
# Experimental protocol: Inhibition of Escherichia coli MurF after 15 mins in presence of 0.005% Triton X-114 by Malachite green assay

Molecular string: Cc1cc(/C=C2/C(=O)NC(=S)N(c3ccccc3F)C2=O)c(C)n1-c1cc(C(=O)O)cc(C(=O)O)c1
IC50 (µM): 344
//
Molecular string: Cc1cc(/C=C2/S/C(=N/c3ccc(Cl)cc3)NC2=O)c(C)n1-c1cc(C(=O)O)cc(C(=O)O)c1
IC50 (µM): 89
//
Molecular string: Cc1ccc(/N=C2\NC(=O)/C(=C\c3cc(C)n(-c4cc(C(=O)O)cc(C(=O)O)c4)c3C)S2)cc1
IC50 (µM): 201
//
Molecular string: Cc1cc(/C=C2/S/C(=N/c3ccc(Br)cc3)NC2=O)c(C)n1-c1cc(C(=O)O)cc(C(=O)O)c1
IC50 (µM): 102
//
Molecular string: COc1ccc(/N=C2\NC(=O)/C(=C\c3cc(C)n(-c4cc(C(=O)O)cc(C(=O)O)c4)c3C)S2)cc1
IC50 (µM): 281
//
Molecular string: Cc1cc(/C=C2/S/C(=N/c3ccccc3)NC2=O)c(C)n1-c1cc(C(=O)O)cc(C(=O)O)c1
IC50 (µM): 298

====

# Test system: UDP-N-acetylmuramoylalanine--D-glutamate ligase (Escherichia coli K-12) (UniProt P14900)
# Sequence (P14900 whole entry): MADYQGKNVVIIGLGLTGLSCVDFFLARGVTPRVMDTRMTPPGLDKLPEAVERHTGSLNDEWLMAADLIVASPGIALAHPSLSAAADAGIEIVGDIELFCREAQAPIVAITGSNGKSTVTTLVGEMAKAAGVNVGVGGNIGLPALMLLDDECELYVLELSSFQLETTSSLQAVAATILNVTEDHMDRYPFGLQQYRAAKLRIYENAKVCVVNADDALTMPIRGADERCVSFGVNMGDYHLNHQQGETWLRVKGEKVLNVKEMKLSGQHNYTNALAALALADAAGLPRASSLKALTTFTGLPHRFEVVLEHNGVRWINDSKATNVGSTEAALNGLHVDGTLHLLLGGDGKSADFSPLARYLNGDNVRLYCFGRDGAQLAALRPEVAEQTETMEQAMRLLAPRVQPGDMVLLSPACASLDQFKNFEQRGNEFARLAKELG
# Experimental protocol: Inhibition of Escherichia coli MurD assessed as residual enzyme activity at 250 uM after 15 mins in presence of 0.005% Triton X-114 by Malachite green assay
Experimental endpoint: Activity (%)

Molecular string: Cc1cc(/C=C2/S/C(=N/c3cccc(Br)c3)NC2=O)c(C)n1C1CCCCC1
Test system: UDP-N-acetylmuramoylalanine--D-glutamate ligase (Escherichia coli K-12) (UniProt P14900)
Experimental endpoint: Activity
Test value: 79

Molecular string: CCc1ccc(N2C(=O)NC(=O)/C(=C/c3cc(C)n(-c4cc(C(=O)O)cc(C(=O)O)c4)c3C)C2=O)cc1
Test system: UDP-N-acetylmuramoylalanine--D-glutamate ligase (Escherichia coli K-12) (UniProt P14900)
Experimental endpoint: Activity
Test value: 81

Molecular string: Cc1cc(/C=C2/S/C(=N/c3ccc(F)cc3)NC2=O)c(C)n1C
Test system: UDP-N-acetylmuramoylalanine--D-glutamate ligase (Escherichia coli K-12) (UniProt P14900)
Experimental endpoint: Activity
Test value: 78

Molecular string: O=C1NC(=S)N(c2ccc(F)cc2)C(=O)/C1=C\c1ccc2c(c1)OCO2
Test system: UDP-N-acetylmuramoylalanine--D-glutamate ligase (Escherichia coli K-12) (UniProt P14900)
Experimental endpoint: Activity
Test value: 102

Molecular string: C/N=C1/S/C(=C/c2cc(C)n(-c3cc(C(=O)O)cc(C(=O)O)c3)c2C)C(=O)N1C
Test system: UDP-N-acetylmuramoylalanine--D-glutamate ligase (Escherichia coli K-12) (UniProt P14900)
Experimental endpoint: Activity
Test value: 89

Molecular string: CCc1ccc(N2C(=O)/C(=C\c3cc(C)n(C4CCCCC4)c3C)C(=O)NC2=S)cc1
Test system: UDP-N-acetylmuramoylalanine--D-glutamate ligase (Escherichia coli K-12) (UniProt P14900)
Experimental endpoint: Activity
Test value: 100

Molecular string: O=C1NC(=S)N(c2ccc(Br)cc2)C(=O)/C1=C\c1ccc2c(c1)OCO2
Test system: UDP-N-acetylmuramoylalanine--D-glutamate ligase (Escherichia coli K-12) (UniProt P14900)
Experimental endpoint: Activity
Test value: 91

Molecular string: Cc1cc(/C=C2/C(=O)NC(=S)N(c3ccccc3F)C2=O)c(C)n1-c1cc(C(=O)O)cc(C(=O)O)c1
Test system: UDP-N-acetylmuramoylalanine--D-glutamate ligase (Escherichia coli K-12) (UniProt P14900)
Experimental endpoint: Activity
Test value: 71

Molecular string: O=C1NC(=S)N(c2ccc(Cl)cc2)C(=O)/C1=C\c1cc2ccccc2[nH]1
Test system: UDP-N-acetylmuramoylalanine--D-glutamate ligase (Escherichia coli K-12) (UniProt P14900)
Experimental endpoint: Activity
Test value: 71

Molecular string: Cc1cc(/C=C2/C(=O)NC(=O)N(c3ccc(Br)cc3)C2=O)c(C)n1-c1cc(C(=O)O)cc(C(=O)O)c1
Test system: UDP-N-acetylmuramoylalanine--D-glutamate ligase (Escherichia coli K-12) (UniProt P14900)
Experimental endpoint: Activity
Test value: 71

Molecular string: O=C1N/C(=N\c2ccc(Br)cc2)S/C1=C/c1c[nH]c2ccccc12
Test system: UDP-N-acetylmuramoylalanine--D-glutamate ligase (Escherichia coli K-12) (UniProt P14900)
Experimental endpoint: Activity
Test value: 102
